ΔTm by entry:
- ASSAY EXPLANATION: Binding affinity to 5'-d(ATATATGATATA)-3'/5'-(TATATCATATAT)-3' DNA assessed as change in melting temperature at 1:1 DNA to compound molar ratio by spectrophotometric analysis
READOUT TYPE: ΔTm (°C)

INSERT INTO assay_data (smiles, readout_type, measure_unit, recorded_value) VALUES
  ('Cc1cc2c3c(cccc3c1)C(=O)N(CCN(C)C)C2=O', 'ΔTm', '°C', 5.1),
  ('CN(C)CCN1C(=O)c2cccc3cc(Br)cc(c23)C1=O', 'ΔTm', '°C', 13.9),
  ('CN(C)CCN1C(=O)c2cccc3cc(-c4ccccc4)cc(c23)C1=O', 'ΔTm', '°C', 1.3),
  ('CN(C)CCN1C(=O)c2cccc3cc(I)cc(c23)C1=O', 'ΔTm', '°C', 8.4),
  ('CC(C)Nc1cc2c3c(cccc3c1)C(=O)N(CCN(C)C)C2=O', 'ΔTm', '°C', 16.4),
  ('CN(C)CCN1C(=O)c2cccc3cc(O)cc(c23)C1=O', 'ΔTm', '°C', 14.7),
  ('CN(C)CCN1C(=O)c2cccc3cc([N+](=O)[O-])cc(c23)C1=O', 'ΔTm', '°C', 17.2),
  ('CC(=O)Nc1cc2c3c(cccc3c1)C(=O)N(CCN(C)C)C2=O', 'ΔTm', '°C', 8.8),
  ('CN(C)CCN1C(=O)c2cccc3cccc(c23)C1=O', 'ΔTm', '°C', 19.4),
  ('CN(C)CCN1C(=O)c2cccc3cc(N)cc(c23)C1=O', 'ΔTm', '°C', 14.6),
  ('CN(C)CCN1C(=O)c2cccc3cc(Cl)cc(c23)C1=O', 'ΔTm', '°C', 7);

###

- ASSAY EXPLANATION: Binding affinity to 5'-r(GUCCGCGGAC)2-3' DNA assessed as change in melting temperature at 1:1 DNA to compound molar ratio by spectrophotometric analysis
READOUT TYPE: ΔTm (°C)

INSERT INTO measurements (smiles, measure_unit, recorded_value) VALUES
  ('CN(C)CCN1C(=O)c2cccc3cc(I)cc(c23)C1=O', '°C', 0),
  ('CN(C)CCN1C(=O)c2cccc3cc(O)cc(c23)C1=O', '°C', 0),
  ('CN(C)CCN1C(=O)c2cccc3cc(N)cc(c23)C1=O', '°C', 1),
  ('CN(C)CCN1C(=O)c2cccc3cc(Cl)cc(c23)C1=O', '°C', 0),
  ('CN(C)CCN1C(=O)c2cccc3cccc(c23)C1=O', '°C', 0),
  ('CN(C)CCN1C(=O)c2cccc3cc([N+](=O)[O-])cc(c23)C1=O', '°C', 2.2);

###

- System: Nucleic Acid
- ASSAY EXPLANATION: Induction of DNA intercalation using 5'-d(ATATAGTATATA)-3'/5'-(TATATACTATAT)-3' at 250 uM by UV-vis spectrophotometric analysis
- Assay type: nucleic-acid assay
Activity calls are given as the source filed them. The rule behind the calls is not given here.
READOUT TYPE: Activity

INSERT INTO assay_data (smiles, recorded_value) VALUES
  ('CN(C)CCN1C(=O)c2cccc3cc(-c4ccccc4)cc(c23)C1=O', 'Active'),
  ('CN(C)CCN1C(=O)c2cccc3cc([N+](=O)[O-])cc(c23)C1=O', 'Active'),
  ('CN(C)CCN1C(=O)c2cccc3cc(N)cc(c23)C1=O', 'Active'),
  ('Cc1cc2c3c(cccc3c1)C(=O)N(CCN(C)C)C2=O', 'Active'),
  ('CC(=O)Nc1cc2c3c(cccc3c1)C(=O)N(CCN(C)C)C2=O', 'Active'),
  ('CC(C)Nc1cc2c3c(cccc3c1)C(=O)N(CCN(C)C)C2=O', 'Active'),
  ('CN(C)CCN1C(=O)c2cccc3cc(Br)cc(c23)C1=O', 'Active'),
  ('CN(C)CCN1C(=O)c2cccc3cc(Cl)cc(c23)C1=O', 'Active'),
  ('CN(C)CCN1C(=O)c2cccc3cccc(c23)C1=O', 'Active'),
  ('CN(C)CCN1C(=O)c2cccc3cc(I)cc(c23)C1=O', 'Active'),
  ('CN(C)CCN1C(=O)c2cccc3cc(O)cc(c23)C1=O', 'Active');

###

- ASSAY EXPLANATION: Binding affinity to 5'-d(ATATAGTATATA)-3'/5'-(TATATACTATAT)-3' DNA assessed as change in melting temperature at 1:1 DNA to compound molar ratio by spectrophotometric analysis
READOUT TYPE: ΔTm (°C)

INSERT INTO assay_data (smiles, readout_type, recorded_value) VALUES
  ('CN(C)CCN1C(=O)c2cccc3cccc(c23)C1=O', 'ΔTm', 11.6),
  ('CC(=O)Nc1cc2c3c(cccc3c1)C(=O)N(CCN(C)C)C2=O', 'ΔTm', 4.7),
  ('CN(C)CCN1C(=O)c2cccc3cc(N)cc(c23)C1=O', 'ΔTm', 10.1),
  ('CN(C)CCN1C(=O)c2cccc3cc(Cl)cc(c23)C1=O', 'ΔTm', 0),
  ('Cc1cc2c3c(cccc3c1)C(=O)N(CCN(C)C)C2=O', 'ΔTm', 0),
  ('CN(C)CCN1C(=O)c2cccc3cc(Br)cc(c23)C1=O', 'ΔTm', 10.8),
  ('CN(C)CCN1C(=O)c2cccc3cc(I)cc(c23)C1=O', 'ΔTm', 1.7),
  ('CC(C)Nc1cc2c3c(cccc3c1)C(=O)N(CCN(C)C)C2=O', 'ΔTm', 0),
  ('CN(C)CCN1C(=O)c2cccc3cc([N+](=O)[O-])cc(c23)C1=O', 'ΔTm', 11.7),
  ('CN(C)CCN1C(=O)c2cccc3cc(-c4ccccc4)cc(c23)C1=O', 'ΔTm', 5.8),
  ('CN(C)CCN1C(=O)c2cccc3cc(O)cc(c23)C1=O', 'ΔTm', 5.7);

###

ΔTm by entry:
- ASSAY EXPLANATION: Binding affinity to 5'-r(GCGCGCGC)2-3' DNA assessed as change in melting temperature at 1:1 DNA to compound molar ratio by spectrophotometric analysis
READOUT TYPE: ΔTm (°C)

INSERT INTO results (smiles, readout_type, recorded_value) VALUES
  ('CC(C)Nc1cc2c3c(cccc3c1)C(=O)N(CCN(C)C)C2=O', 'ΔTm', 0),
  ('CC(=O)Nc1cc2c3c(cccc3c1)C(=O)N(CCN(C)C)C2=O', 'ΔTm', 0),
  ('Cc1cc2c3c(cccc3c1)C(=O)N(CCN(C)C)C2=O', 'ΔTm', 0),
  ('CN(C)CCN1C(=O)c2cccc3cc(-c4ccccc4)cc(c23)C1=O', 'ΔTm', 0),
  ('CN(C)CCN1C(=O)c2cccc3cc(N)cc(c23)C1=O', 'ΔTm', 1.1),
  ('CN(C)CCN1C(=O)c2cccc3cc(Cl)cc(c23)C1=O', 'ΔTm', 0),
  ('CN(C)CCN1C(=O)c2cccc3cc([N+](=O)[O-])cc(c23)C1=O', 'ΔTm', 1.8),
  ('CN(C)CCN1C(=O)c2cccc3cc(I)cc(c23)C1=O', 'ΔTm', 0),
  ('CN(C)CCN1C(=O)c2cccc3cc(O)cc(c23)C1=O', 'ΔTm', 0),
  ('CN(C)CCN1C(=O)c2cccc3cccc(c23)C1=O', 'ΔTm', 0),
  ('CN(C)CCN1C(=O)c2cccc3cc(Br)cc(c23)C1=O', 'ΔTm', 1.6);

###

- System: Nucleic Acid
- ASSAY EXPLANATION: Induction of DNA intercalation using 5'-r(GUCCGCGGAC)2-3' at 250 uM by UV-vis spectrophotometric analysis
- Format: nucleic-acid assay
Calls of active or inactive are those of the source. The rule behind the calls is not given here.
READOUT TYPE: Activity

INSERT INTO measurements (smiles, recorded_value) VALUES
  ('CN(C)CCN1C(=O)c2cccc3cc(Cl)cc(c23)C1=O', 'Active'),
  ('CN(C)CCN1C(=O)c2cccc3cccc(c23)C1=O', 'Active'),
  ('CN(C)CCN1C(=O)c2cccc3cc(Br)cc(c23)C1=O', 'Active'),
  ('CN(C)CCN1C(=O)c2cccc3cc(I)cc(c23)C1=O', 'Active'),
  ('CN(C)CCN1C(=O)c2cccc3cc(-c4ccccc4)cc(c23)C1=O', 'Active'),
  ('CN(C)CCN1C(=O)c2cccc3cc([N+](=O)[O-])cc(c23)C1=O', 'Active'),
  ('CN(C)CCN1C(=O)c2cccc3cc(O)cc(c23)C1=O', 'Active'),
  ('CC(C)Nc1cc2c3c(cccc3c1)C(=O)N(CCN(C)C)C2=O', 'Active'),
  ('CC(=O)Nc1cc2c3c(cccc3c1)C(=O)N(CCN(C)C)C2=O', 'Active'),
  ('Cc1cc2c3c(cccc3c1)C(=O)N(CCN(C)C)C2=O', 'Active'),
  ('CN(C)CCN1C(=O)c2cccc3cc(N)cc(c23)C1=O', 'Active');
